Give growth AUC for every item shown.
tested on: Bacteroides caccae; assay: growth AUC relative to DMSO control (median of replicates) (fraction); higher = more growth (less inhibition), active = hit call of the paper; conditions: 20 µM; 24 h
Number, no unit, nothing else.

Q: # return recorded growth AUC for entry `O=c1ccc(=O)[nH][nH]1`
A: 0.973

Q: # return recorded growth AUC for entry `CCC(=O)Nc1ccc(Cl)c(Cl)c1`
A: 1

Q: # return recorded growth AUC for entry `CNC(=O)Oc1cccc2c1OC(C)(C)C2`
A: 0.964

Q: # return recorded growth AUC for entry `c1ccc2c(c1)cc1ccc3cccc4ccc2c1c34`
A: 0.957

Q: # return recorded growth AUC for entry `O=C(O)c1ccccc1C(=O)Nc1cccc2ccccc12`
A: 1.04

Q: # return recorded growth AUC for entry `Clc1cccc(Cl)c1Cl`
A: 1.04

Q: # return recorded growth AUC for entry CC(COc1ccc(Oc2ccccc2)cc1)Oc1ccccn1 (stereo not given)
A: 0.949

Q: # return recorded growth AUC for entry `N#Cc1cc(I)c(O)c(I)c1`
A: 0.802

Q: # return recorded growth AUC for entry `CCOP(=S)(OCC)SCS(=O)(=O)CC`
A: 0.96

Q: # return recorded growth AUC for entry `BrCCBr`
A: 0.998

Q: # return recorded growth AUC for entry `CNC(=O)Oc1ccccc1OC(C)C`
A: 0.993

Q: # return recorded growth AUC for entry `CSc1nc(N=[N+]=[N-])nc(NC(C)C)n1`
A: 1.04

Q: # return recorded growth AUC for entry `COC(=O)C1(O)c2ccccc2-c2ccccc21`
A: 1.03

Q: # return recorded growth AUC for entry `CC(C)(O)C(Cl)(Cl)Cl.CC(C)(O)C(Cl)(Cl)Cl.O`
A: 1.01

Q: # return recorded growth AUC for entry `CCNc1nc(NCC)nc(SC)n1`
A: 0.946

Q: # return recorded growth AUC for entry `NC(=S)c1c(Cl)cccc1Cl`
A: 0.943

Q: # return recorded growth AUC for entry `CC(C)NC(=O)N1CC(=O)N(c2cc(Cl)cc(Cl)c2)C1=O`
A: 0.969

Q: # return recorded growth AUC for entry `CN(C)C(=S)[S-].CN(C)C(=S)[S-].[Zn+2]`
A: 0.876

Q: # return recorded growth AUC for entry `O=C(Nc1ccccc1)N(Cc1ccc(Cl)cc1)C1CCCC1`
A: 0.983

Q: # return recorded growth AUC for entry `N#Cc1sc2c(=O)c3ccccc3c(=O)c=2sc1C#N`
A: 0.982

Q: # return recorded growth AUC for entry CC(C)(C)C(O)C(Oc1ccc(Cl)cc1)n1cncn1 (stereo not given)
A: 0.985

Q: # return recorded growth AUC for entry `Cc1cc(Cl)ccc1N=CN(C)C.Cl`
A: 0.997

Q: # return recorded growth AUC for entry `CC(C)N(C(=O)CCl)c1ccccc1`
A: 1.02

Q: # return recorded growth AUC for entry `COC[C@H](C)N(C(=O)CCl)c1c(C)csc1C`
A: 1

Q: # return recorded growth AUC for entry `CC1(C)CON(Cc2ccccc2Cl)C1=O`
A: 0.927

Q: # return recorded growth AUC for entry `COP(=O)(OC)Oc1ccc(SC)c(C)c1`
A: 0.994

Q: # return recorded growth AUC for entry `CCNc1nc(Cl)nc(NCC)n1`
A: 1

Q: # return recorded growth AUC for entry `CC(C)N1C(=O)N(c2ccccc2)CSC1=NC(C)(C)C`
A: 0.957

Q: # return recorded growth AUC for entry `CC(C)N(Cc1ccccc1)C(=O)C(C)(C)C`
A: 0.928

Q: # return recorded growth AUC for entry `Cc1ccc(NC(=O)c2snnc2C)cc1Cl`
A: 0.968

Q: # return recorded growth AUC for entry `O=C(O)c1ccc(=O)[nH]c1`
A: 1.02

Q: # return recorded growth AUC for entry CCCCC(O)(Cn1cncn1)c1ccc(Cl)cc1Cl (stereo not given)
A: 0.944

Q: # return recorded growth AUC for entry `Clc1nc(Cl)nc(Nc2ccccc2Cl)n1`
A: 1.02

Q: # return recorded growth AUC for entry `Nc1nc(N)nc(Cl)n1`
A: 1.05

Q: # return recorded growth AUC for entry CCOP(=O)(NC(C)C)Oc1ccc(S(C)(=O)=O)c(C)c1 (stereo not given)
A: 1.01

Q: # return recorded growth AUC for entry `CS(=O)(=O)c1ccc(C(=O)C2C(=O)CCCC2=O)c([N+](=O)[O-])c1`
A: 0.986

Q: # return recorded growth AUC for entry ClC1=C(Cl)C2(Cl)[C@H]3[C@@H]4O[C@@H]4[C@H](Cl)[C@H]3C1(Cl)C2(Cl)Cl (single isomer, unassigned; isomer b)
A: 0.98

Q: # return recorded growth AUC for entry `CCOC(=O)COc1cc(-c2nn(C)c(OC(F)F)c2Cl)c(F)cc1Cl`
A: 0.974

Q: # return recorded growth AUC for entry `O=[N+]([O-])c1c(Cl)c(Cl)c(Cl)c(Cl)c1Cl`
A: 0.777

Q: # return recorded growth AUC for entry `c1ccc2c(c1)-c1cccc3cccc-2c13`
A: 0.969

Q: # return recorded growth AUC for entry CC1(C)C(/C=C(\Cl)c2ccc(Cl)cc2)C1C(=O)OC(C#N)c1ccc(F)c(Oc2ccccc2)c1 (stereo not given)
A: 0.993

Q: # return recorded growth AUC for entry `C[C@@H](Oc1ccc(Oc2cnc3cc(Cl)ccc3n2)cc1)C(=O)O`
A: 0.938

Q: # return recorded growth AUC for entry `N#CN=C1SCCN1Cc1ccc(Cl)nc1`
A: 1

Q: # return recorded growth AUC for entry `CCS(=O)(=O)Oc1ccc2c(c1)C(C)(C)CO2`
A: 1

Q: # return recorded growth AUC for entry `COC(=O)NCc1cc(/C(C)=N\OCc2cccc(C)n2)ccc1Cl`
A: 0.936

Q: # return recorded growth AUC for entry `CCOP(=S)(OCC)SCn1nnc2ccccc2c1=O`
A: 0.969

Q: # return recorded growth AUC for entry CC(C)=CC1C(C(=O)OCN2C(=O)C3=C(CCCC3)C2=O)C1(C)C (stereo not given)
A: 0.916

Q: # return recorded growth AUC for entry `NCCO.O=C(O)c1nc(Cl)ccc1Cl`
A: 1.01

Q: # return recorded growth AUC for entry CNC(=O)O/N=C/C(C)(C)S(C)=O (stereo not given)
A: 1.04

Q: # return recorded growth AUC for entry `COC(=O)C(C)(Cl)Cl`
A: 0.984
